meta.source: paper PMC7827417

- System: CCRF-CEM cells
- experiment-summary: Cell cycle arrest and cell death analysis by flow cytometry (propidium iodide, pH3Ser10)
- Assay type: cell-based, human
- condition: 5 × IC50, 24 h, % of positive cells
S listing for selected compounds.
Output spec: scalar in %, unitless text.

Worked examples, 2 compounds total:
- C[C@]12CC[C@H]3[C@@H](CCC4=C[C@@H](O[C@@H]5OC[C@@H](O)[C@H](O)[C@H]5O)CC[C@@]43C=O)[C@@]1(O)CC[C@@H]2C1=CC(=O)OC1 [deHyr, deglucohyrcanoside]: 34.53
- C[C@]12CC[C@H]3[C@@H](CCC4=C[C@@H](O[C@@H]5OC[C@@H](O[C@@H]6O[C@H](CO)[C@@H](O)[C@H](O)[C@H]6O)[C@H](O)[C@H]5O)CC[C@@]43C=O)[C@@]1(O)CC[C@@H]2C1=CC(=O)OC1: 23.01

Request: Quick one: S for C[C@@H]1O[C@@H](O[C@H]2C[C@@H](O)[C@]3(CO)[C@H]4[C@H](O)C[C@]5(C)[C@@H](C6=CC(=O)OC6)CC[C@]5(O)[C@@H]4CC[C@]3(O)C2)[C@H](O)[C@H](O)[C@H]1O ?
Response: 40.80

Request: Further, for CO[C@H]1C[C@H](O[C@H]2CC[C@]3(C=O)[C@H]4CC[C@]5(C)[C@@H](C6=CC(=O)OC6)CC[C@]5(O)[C@@H]4CC[C@]3(O)C2)O[C@H](C)[C@H]1O ?
Response: 31.17

Request: Same for C[C@H]1O[C@@H](O[C@H]2[C@@H](O)C[C@H](O[C@H]3[C@@H](O)C[C@H](O[C@H]4CC[C@@]5(C)[C@H](CC[C@@H]6[C@@H]5CC[C@]5(C)[C@@H](C7=CC(=O)OC7)CC[C@]65O)C4)O[C@@H]3C)O[C@@H]2C)C[C@H](O)[C@@H]1O
Response: 22.26
